# subjectOfTest: UniProt O60674
# Sequence (O60674 whole entry): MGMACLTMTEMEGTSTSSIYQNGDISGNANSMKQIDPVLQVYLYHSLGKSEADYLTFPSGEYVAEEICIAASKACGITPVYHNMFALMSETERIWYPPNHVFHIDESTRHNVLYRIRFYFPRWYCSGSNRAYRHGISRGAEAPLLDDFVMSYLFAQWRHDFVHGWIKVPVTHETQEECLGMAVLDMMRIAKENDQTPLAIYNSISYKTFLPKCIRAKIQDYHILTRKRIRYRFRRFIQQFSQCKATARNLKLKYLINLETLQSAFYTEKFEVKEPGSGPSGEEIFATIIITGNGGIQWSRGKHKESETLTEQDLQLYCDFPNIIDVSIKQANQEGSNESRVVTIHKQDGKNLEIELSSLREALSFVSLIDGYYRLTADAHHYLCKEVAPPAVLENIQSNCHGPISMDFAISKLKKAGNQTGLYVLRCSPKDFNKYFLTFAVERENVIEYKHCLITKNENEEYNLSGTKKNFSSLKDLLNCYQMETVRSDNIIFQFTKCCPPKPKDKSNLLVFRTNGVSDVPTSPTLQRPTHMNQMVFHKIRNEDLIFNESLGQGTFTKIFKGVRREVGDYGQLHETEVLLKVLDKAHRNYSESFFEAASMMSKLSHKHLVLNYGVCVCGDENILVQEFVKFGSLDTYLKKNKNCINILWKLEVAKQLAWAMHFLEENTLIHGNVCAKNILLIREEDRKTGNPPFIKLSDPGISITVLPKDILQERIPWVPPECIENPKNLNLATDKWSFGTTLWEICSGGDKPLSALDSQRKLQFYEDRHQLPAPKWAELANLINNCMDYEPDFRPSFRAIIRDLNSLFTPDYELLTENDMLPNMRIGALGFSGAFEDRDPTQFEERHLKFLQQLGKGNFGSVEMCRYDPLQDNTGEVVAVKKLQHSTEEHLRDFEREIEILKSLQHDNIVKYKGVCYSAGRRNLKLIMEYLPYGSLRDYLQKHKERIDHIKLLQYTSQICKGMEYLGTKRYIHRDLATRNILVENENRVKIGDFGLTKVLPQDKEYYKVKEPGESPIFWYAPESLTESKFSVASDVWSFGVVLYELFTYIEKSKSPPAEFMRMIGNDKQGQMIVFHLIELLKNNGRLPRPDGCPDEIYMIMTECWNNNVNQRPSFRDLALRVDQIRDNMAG
# assay: Inhibition of recombinant human JAK2 using Ulight-CAGAGAIETDKEYYTVKD as substrate measured after 60 mins by LANCE assay
pIC50: −log10 of the molar value.
measurementLabel: pIC50

Answered cases to consult:
givenSmiles	pIC50
O=C(CCCCCCCn1cc(Nc2ncc(Cl)c(Nc3ccc(F)cc3)n2)cn1)NO	7.21
O=C(CCCCCCn1cc(Nc2ncc(Cl)c(Nc3cccc(Cl)c3)n2)cn1)NO	8.00
O=C(CCCCCCn1cc(Nc2ncc(Cl)c(Nc3ccccc3)n2)cn1)NO	7.92

[P] O=C(CCn1cc(Nc2ncc(Cl)c(Nc3ccc(F)cc3)n2)cn1)NO
[Q] O=C(CCCCCn1cc(Nc2ncc(Cl)c(Nc3ccc(F)cc3)n2)cn1)NO
[R] CNc1nc(Nc2cnn(CCCCCC(=O)NO)c2)ncc1Cl
Exam item: Endpoint returns the given compounds ordered by ascending pIC50. State the ranking by listing the labels in the requested order.
Marked response: R, P, Q
